MEASURED ON: T1, cynomolgus IgE (recombinant chimaeric D12 variable region / cynomolgus IgE constant region) (cynomolgus monkey (constant region))
T1 construct: also called cyno IgE; cynomolgus IgE (in house HEK-EBNA derived)
ASSAY OVERVIEW: HTRF receptor-ligand competition, scFv titrated; Eu-cryptate cynomolgus IgE binding to human FcεRI-Fc; geomean
METRIC NAME: pIC50
Schema: pIC50 number; meaning minus log10 of the concentration expressed in molar units.

Q) Give the reported pIC50 for this binder. Antibody 23 (scFv) (scFv, V domains shown, purified scFv) VH: EVQLLESGGGLVQPGGSLRLSCAASEFTFGSYAMSWVRQAPGKGLEWVSAISGGSGGRTYYADSVKGRFTISRDNSKNTLYLQMNSLRAEDTAVYYCARHIAVAGTRGFDYWGRGTLVTVSS VL: SYVLTQPPSVSVSPGQTASITCSGDKLGDTYASWYRQRSGQSPVLVIYQDDKRPSGIPERFSGSNSGNAATLTISGTHTMDEADYYCLAWDTRTSGAVFGGGTKLTVL
A) 6.48

Values compiled from patent US20110212084A1.
